Values from patent US10189839B2

TARGET UNDER TEST: full length human TPH1 (Homo sapiens)
Construct: To generate the enzyme, full length human TPH1 is cloned into the plasmid pET20b(+); made in house; host or cells: E. coli
Sequence (P17752 whole entry): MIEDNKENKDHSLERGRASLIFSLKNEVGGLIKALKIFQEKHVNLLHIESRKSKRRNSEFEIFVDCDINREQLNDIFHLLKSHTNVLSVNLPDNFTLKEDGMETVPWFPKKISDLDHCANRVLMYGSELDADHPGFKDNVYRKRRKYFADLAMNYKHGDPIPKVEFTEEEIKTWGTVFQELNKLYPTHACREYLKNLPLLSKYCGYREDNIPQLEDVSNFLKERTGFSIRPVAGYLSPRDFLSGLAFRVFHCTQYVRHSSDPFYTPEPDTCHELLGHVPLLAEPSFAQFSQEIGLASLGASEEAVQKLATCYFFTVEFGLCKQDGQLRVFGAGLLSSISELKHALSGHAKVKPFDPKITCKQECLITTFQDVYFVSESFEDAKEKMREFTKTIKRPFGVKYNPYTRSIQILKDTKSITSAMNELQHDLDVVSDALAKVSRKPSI
EXPERIMENT: Biochemical in vitro assay using fluorescence readout (TPH1 enzyme activity)
CONDITION SUMMARY: Table 1, mean where determined several times
VALUE TYPE: IC50 (nM)

Illustrative cases are given below, each with its answer.
# MOLECULE, IC50 [nM]
measured = [
    ("CCc1nc(NS(C)(=O)=O)ccc1OCC(=O)N1CCc2nc3n(c2C1c1ccc(C)c(F)c1F)CCS3 (stereo not shown)", 6),
    ("CS(=O)(=O)Nc1ccc(OCC(=O)N2CCc3nc4n(c3C2c2sccc2F)CCS4)c(Cl)n1 (stereo not shown)", 58),
    ("CN(C)C(=O)c1ccc(OCC(=O)N2CCc3nc4n(c3C2c2sccc2F)CCS4)c(Cl)n1 (stereo not shown)", 28),
    ("CN(CC(F)(F)F)c1ccc(OCC(=O)N2CCc3nc4n(c3C2c2ccc(Cl)cc2F)CCCC4)c(Cl)n1 (stereo not shown)", 9),
]

P: CC(C)(C)OC(=O)N1CCn2c(nc3c2C(c2ccc(C4CC4)cc2F)N(C(=O)COc2ccc(N4CCOCC4)cc2Cl)CC3)C1 (stereo not shown)
Q: CS(=O)(=O)Nc1ccc(OCC(=O)N2CCc3nc4n(c3C2c2ccc(Cl)cc2F)CCOC4)c(Cl)n1 (stereo not shown)
R: CCc1nc(C(=O)NC2CC2)ccc1OCC(=O)N1CCc2nc3n(c2[C@@H]1c1ncc(C2CC2)cc1F)CCCC3
Order the records so the highest IC50 appears first and the lowest last. I would appreciate it if you listed the labels in the requested order.
P, Q, R
